# tested_target: hPDE2A (Homo sapiens)
# Construct: made in house; host or cells: Sf9 insect cells (baculovirus)
# Sequence (O00408 whole entry): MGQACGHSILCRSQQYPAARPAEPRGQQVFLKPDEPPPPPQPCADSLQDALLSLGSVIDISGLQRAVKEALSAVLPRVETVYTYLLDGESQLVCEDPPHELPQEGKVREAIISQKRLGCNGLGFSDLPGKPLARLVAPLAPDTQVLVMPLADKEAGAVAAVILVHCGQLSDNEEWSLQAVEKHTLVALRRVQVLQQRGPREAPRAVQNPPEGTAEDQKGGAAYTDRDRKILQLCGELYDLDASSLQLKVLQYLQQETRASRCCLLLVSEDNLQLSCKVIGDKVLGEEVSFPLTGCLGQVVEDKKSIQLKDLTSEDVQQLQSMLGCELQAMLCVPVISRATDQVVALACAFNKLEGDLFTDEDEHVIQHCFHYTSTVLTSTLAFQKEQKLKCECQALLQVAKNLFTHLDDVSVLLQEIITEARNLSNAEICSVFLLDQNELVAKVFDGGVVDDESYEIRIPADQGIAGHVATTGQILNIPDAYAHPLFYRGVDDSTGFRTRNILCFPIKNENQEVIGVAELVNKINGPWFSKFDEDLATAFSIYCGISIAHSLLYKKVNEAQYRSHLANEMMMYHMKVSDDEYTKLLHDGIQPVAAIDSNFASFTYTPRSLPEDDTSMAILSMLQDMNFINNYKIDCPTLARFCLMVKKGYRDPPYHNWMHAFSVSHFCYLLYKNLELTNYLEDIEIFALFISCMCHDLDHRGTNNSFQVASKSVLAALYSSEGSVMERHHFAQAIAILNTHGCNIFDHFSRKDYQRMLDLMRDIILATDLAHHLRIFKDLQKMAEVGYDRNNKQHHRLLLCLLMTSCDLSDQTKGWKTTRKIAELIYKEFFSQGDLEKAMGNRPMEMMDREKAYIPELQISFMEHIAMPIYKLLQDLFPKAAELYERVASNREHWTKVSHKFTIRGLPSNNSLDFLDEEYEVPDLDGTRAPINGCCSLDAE
# test_protocol: In vitro assay PDE2A (SPA, 3H-cGMP)
# Format: biochemical
The label 1 is reserved for IC50 strictly under 40 nM; -1 covers values equal to or above it.

[
  {
    "compound": "C[C@@H]1CCN(c2ncc(C(F)(F)F)cc2Br)C[C@H]1c1cc(C(F)F)nc2ncnn12 [Compound 19]",
    "discrete_label": 1
  },
  {
    "compound": "C[C@@H]1CCN(c2ncnc3ccccc23)C[C@H]1c1cc(C(F)F)nc2ncnn12 [Compound 12]",
    "discrete_label": 1
  },
  {
    "compound": "C[C@@H]1CCN(c2nccc3cccc(F)c23)C[C@H]1c1cc(C(F)F)nc2ncnn12 [Compound 20]",
    "discrete_label": 1
  },
  {
    "compound": "CC(C)Oc1cccnc1N1CC[C@@H](C)[C@H](c2cc(C(F)F)nc3ncnn23)C1.Cl [Compound 31]",
    "discrete_label": -1
  },
  {
    "compound": "Cc1cccc(N2CC[C@@H](C)C(c3cc(C(F)F)nc4ncnn34)C2)n1 (some centres unmarked) [Compound 39]",
    "discrete_label": -1
  },
  {
    "compound": "C[C@@H]1CCN(c2cccc(C(F)(F)F)n2)C[C@H]1c1cc(C(F)F)nc2ncnn12 [Compound 26]",
    "discrete_label": -1
  },
  {
    "compound": "C[C@@H]1CCN(c2nccc3ccccc23)C[C@H]1c1cc(C(F)F)nc2ncnn12 [Compound 7]",
    "discrete_label": 1
  },
  {
    "compound": "FC(F)c1cc([C@H]2CC[C@H]3CC[C@@H]2N3c2c(Br)ccc3ccncc23)n2ncnc2n1 [Compound 5]",
    "discrete_label": 1
  }
]
